Provenance of the data: paper PMC11876671

Give PAMPA-BBB Pe for every item shown.
details: Table S2: compounds exhibiting moderate to high PAMPA-BBB permeability

Briefly, PAMPA-BBB Pe measured for COc1ccc(-c2cc(=O)c3c(O)cc(OC)c(OC)c3o2)c(OC)c1 : 201 10^-6 cm/sec

In plain terms, COc1cc(C(=O)O[C@H]2CC(C)=CCC/C(C)=C/[C@@H](O)C2C(C)C)ccc1O (stereo partly shown) has a documented PAMPA-BBB Pe of 88 10^-6 cm/sec

// sample CCC(=O)CCCCC[C@@H]1NC(=O)[C@H]2CCCCN2C(=O)[C@H]([C@@H](C)CC)NC(=O)[C@H](Cc2cn(OC)c3ccccc23)NC1=O , its PAMPA-BBB Pe was 56 10^-6 cm/sec

So for COc1ccc(CC(=O)c2ccc(O)cc2O)cc1 , the logged PAMPA-BBB Pe turned out to be 172 10^-6 cm/sec

Recorded result, COc1cc(OC)c2c(c1Cl)O[C@]1(C2=O)[C@H](C)CC(=O)C[C@@H]1OC , PAMPA-BBB Pe: 31 10^-6 cm/sec

Lab book: PAMPA-BBB Pe of CC1(C)C=Cc2c(ccc(C(=O)/C=C/c3ccccc3)c2O)O1 noted as 10 10^-6 cm/sec

Record summary for CN(C)CCc1cc2c(c3c1ccc1ccccc13)OCO2 : reported PAMPA-BBB Pe = 27 10^-6 cm/sec

For record CCCc1cc(=O)c2ccccc2n1C the listed PAMPA-BBB Pe is 137 10^-6 cm/sec

Summary for this compound, COc1cc2c(cc1O)[C@@H]1Cc3ccc(OC)c(O)c3CN1CC2 : PAMPA-BBB Pe is 78 10^-6 cm/sec

// PAMPA-BBB Pe value for C/C=C/c1ccc(OC(C)[C@@H](O)c2ccc(O)c(OC)c2)c(OC)c1 (stereo partly shown) : 150 10^-6 cm/sec

Input C=CC[C@@H]1/C=C(\C)C[C@H](C)C[C@H](OC)[C@H]2O[C@@](O)(C(=O)C(=O)N3CCCC[C@H]3C(=O)O[C@H](/C(C)=C/[C@@H]3CC[C@@H](O)[C@H](OC)C3)[C@H](C)[C@@H](O)CC1=O)[C@H](C)C[C@@H]2OC [Tacrolimus, reference compound] . Output PAMPA-BBB Pe: 154 10^-6 cm/sec

Memo: COc1ccc(-c2oc3cc(OC)c(OC)c(OC)c3c(=O)c2OC)cc1 , reported PAMPA-BBB Pe: 308 10^-6 cm/sec

// PAMPA-BBB Pe lookup, compound = COc1cc(O)c2c(c1)C1OC1C[C@H](O)[C@H](O)C(=O)C=CC[C@H](C)OC2=O (stereo partly shown) , result: 69 10^-6 cm/sec

What the record says about O=C1CCC[C@H]2[C@H]3CCCN4CCCC(=CN12)[C@@H]34 : PAMPA-BBB Pe is 33 10^-6 cm/sec

Form: compound = Cc1c2ccncc2c(C)c2c1[nH]c1ccccc12 ; PAMPA-BBB Pe = >1000 10^-6 cm/sec

Entry CCOC(=O)c1c(C)cc(OC)cc1O ; PAMPA-BBB Pe = 290 10^-6 cm/sec

* * *

method-notes: in vitro
details: PAMPA, PAMPA-BBB Pe, Table S1; 60 min, room temperature, 0.05 mM
value-kind: Papp (×10⁻⁶ cm/s)
Please respond with the number in ×10⁻⁶ cm/s and leave the unit unwritten.

Notebook: CC[C@@]1(O)C[C@H](O[C@H]2C[C@H](N(C)C)[C@H](O)[C@H](C)O2)c2c(cc3c(c2O)C(=O)c2c(O)ccc(O)c2C3=O)[C@H]1C(=O)OC , Papp read as 31.9

According to the records, this molecule Cc1c(O)c(O)cc2c1CC=C1[C@@]2(C)CC[C@@]2(C)[C@H]3C[C@](C)(C(=O)O)CC[C@]3(C)CC[C@]12C displays Papp of 288

C=C(C)[C@@]12OC3(c4ccccc4)O[C@@H]1[C@@H]1[C@@H]4O[C@]4(CO)[C@@H](O)[C@]4(O)C(=O)C(C)=C[C@H]4[C@@]1(O3)[C@H](C)[C@H]2OC(=O)/C=C/C=C/c1ccccc1 has a reported Papp of 15.6
